# experiment.notes: XTT cytotoxicity assay, non-tumorigenic cells
# Format: cell-based, human
# assay.setup: human, HEK-293 cells (nontumorigenic); HEK293, 10 μM; read-out: cell viability
# Procedure: Human cell lines for breast cancer (MCF-7), lung cancer (A549), prostate cancer (PC-3), and nontumorigenic HEK-293 were sourced from the Health Protection Agency (U.K.) and the Interlab Cell Line Collection (Italy). The cells were cultured in RPMI medium (Sigma) supplemented with 10% heat-inactivated fetal bovine serum, 1% penicillin, and 1% L-glutamine, and incubated in a humidified CO2 atmosphere at 37 °C. […]
metric.name: viability at 10 µM (%)
One number for each entry, in %.

Task: Identify measured viability at 10 µM corresponding to Cc1cc(C2=NCC(=CC#Cc3ccccc3)SC(c3ccc(Cl)cc3)=C2)ccc1F [TZEP7]
Output: 44.1

----------
# assayed.target: EGFRT790M kinase (Homo sapiens, UniProt P00533, T790M)
# Sequence (P00533 25-1210 T790M): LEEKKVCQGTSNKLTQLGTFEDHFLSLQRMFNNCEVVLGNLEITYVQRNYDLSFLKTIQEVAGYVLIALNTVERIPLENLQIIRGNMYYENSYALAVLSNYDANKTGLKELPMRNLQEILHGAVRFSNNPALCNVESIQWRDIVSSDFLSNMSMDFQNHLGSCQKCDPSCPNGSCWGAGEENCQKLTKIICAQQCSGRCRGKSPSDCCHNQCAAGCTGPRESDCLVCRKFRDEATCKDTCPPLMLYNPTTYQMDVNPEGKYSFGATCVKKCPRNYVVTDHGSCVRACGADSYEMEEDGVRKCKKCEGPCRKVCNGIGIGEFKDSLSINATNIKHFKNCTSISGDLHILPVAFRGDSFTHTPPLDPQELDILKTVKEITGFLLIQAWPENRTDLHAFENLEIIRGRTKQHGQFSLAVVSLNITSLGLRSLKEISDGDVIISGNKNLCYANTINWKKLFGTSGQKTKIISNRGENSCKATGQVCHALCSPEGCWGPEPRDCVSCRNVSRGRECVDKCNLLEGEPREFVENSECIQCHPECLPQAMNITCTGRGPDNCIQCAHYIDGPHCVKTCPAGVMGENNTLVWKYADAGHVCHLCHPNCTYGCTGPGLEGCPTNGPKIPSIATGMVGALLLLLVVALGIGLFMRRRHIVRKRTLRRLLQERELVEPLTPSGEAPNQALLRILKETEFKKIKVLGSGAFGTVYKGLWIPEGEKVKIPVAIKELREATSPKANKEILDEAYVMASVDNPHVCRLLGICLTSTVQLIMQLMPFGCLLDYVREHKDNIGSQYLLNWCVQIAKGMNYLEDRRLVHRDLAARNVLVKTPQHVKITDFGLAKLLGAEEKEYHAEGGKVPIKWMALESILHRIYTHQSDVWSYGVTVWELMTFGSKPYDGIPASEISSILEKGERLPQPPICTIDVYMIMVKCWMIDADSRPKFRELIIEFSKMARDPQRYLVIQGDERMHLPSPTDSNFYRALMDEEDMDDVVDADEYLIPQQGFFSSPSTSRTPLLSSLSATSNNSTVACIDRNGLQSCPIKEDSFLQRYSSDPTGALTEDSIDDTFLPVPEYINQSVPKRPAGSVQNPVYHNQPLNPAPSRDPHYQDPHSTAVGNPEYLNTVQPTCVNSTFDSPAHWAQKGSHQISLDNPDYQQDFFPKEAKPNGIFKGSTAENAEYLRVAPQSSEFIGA
# experiment.notes: EGFR kinase inhibition assay (HTRF KinEASE-TK)
# Type: biochemical
# assay.setup: A549 cells
# Experimental: The inhibitory effects of the target compounds on various EGFR kinases were assessed using a homogeneous time-resolved fluorescence (HTRF) assay, employing the HTRF KinEASE-TK kit (Cat# 62TK0PEC, Cisbio).[18] […] After a 1 h incubation of the plate, readings were taken on a microplate reader under standard HTRF conditions. IC50 values were calculated using GraphPad Prism 5.0 software. […] The data were analyzed using GraphPad Prism.
metric.name: pIC50
Numbers only, as −log10 of the molar value.

Task: Identify measured pIC50 corresponding to "Cc1cc(C2=NCC(=CC#Cc3ccccc3)SC(c3ccc(Cl)cc3)=C2)ccc1F"
Output: 6.66

----------
# assayed.target: EGFRWT kinase (Homo sapiens, UniProt P00533)
# Sequence (P00533 25-1210): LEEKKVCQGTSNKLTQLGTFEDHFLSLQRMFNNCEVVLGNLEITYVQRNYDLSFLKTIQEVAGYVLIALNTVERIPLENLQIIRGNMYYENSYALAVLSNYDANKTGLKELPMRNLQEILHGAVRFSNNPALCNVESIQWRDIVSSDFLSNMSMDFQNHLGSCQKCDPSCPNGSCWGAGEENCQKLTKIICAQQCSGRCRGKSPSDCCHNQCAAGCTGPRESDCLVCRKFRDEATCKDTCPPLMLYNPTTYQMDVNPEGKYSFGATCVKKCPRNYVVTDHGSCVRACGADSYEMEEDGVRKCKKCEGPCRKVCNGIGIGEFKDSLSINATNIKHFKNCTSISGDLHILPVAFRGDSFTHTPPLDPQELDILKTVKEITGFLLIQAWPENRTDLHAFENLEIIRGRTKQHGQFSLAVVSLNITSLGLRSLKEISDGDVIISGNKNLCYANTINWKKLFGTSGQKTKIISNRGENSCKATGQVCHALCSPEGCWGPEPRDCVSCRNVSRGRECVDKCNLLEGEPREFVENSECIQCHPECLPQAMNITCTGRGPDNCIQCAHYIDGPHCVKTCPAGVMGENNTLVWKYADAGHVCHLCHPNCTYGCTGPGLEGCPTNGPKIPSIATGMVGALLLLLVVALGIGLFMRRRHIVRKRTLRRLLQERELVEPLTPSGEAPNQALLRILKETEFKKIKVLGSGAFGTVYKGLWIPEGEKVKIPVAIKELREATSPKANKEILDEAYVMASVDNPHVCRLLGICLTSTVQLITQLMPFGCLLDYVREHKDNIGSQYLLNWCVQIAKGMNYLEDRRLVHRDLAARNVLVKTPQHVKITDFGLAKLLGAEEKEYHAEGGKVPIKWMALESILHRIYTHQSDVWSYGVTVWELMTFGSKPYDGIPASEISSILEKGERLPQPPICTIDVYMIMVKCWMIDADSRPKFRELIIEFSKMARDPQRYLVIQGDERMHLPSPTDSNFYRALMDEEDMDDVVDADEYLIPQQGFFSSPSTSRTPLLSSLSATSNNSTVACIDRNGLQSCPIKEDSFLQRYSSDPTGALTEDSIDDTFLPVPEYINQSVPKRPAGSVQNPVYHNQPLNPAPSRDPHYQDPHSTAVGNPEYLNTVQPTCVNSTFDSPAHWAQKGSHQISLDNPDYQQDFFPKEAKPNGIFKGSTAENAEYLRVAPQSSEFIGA
# experiment.notes: EGFR kinase inhibition assay (HTRF KinEASE-TK)
# Type: biochemical
# Protocol: The inhibitory effects of the target compounds on various EGFR kinases were assessed using a homogeneous time-resolved fluorescence (HTRF) assay, employing the HTRF KinEASE-TK kit (Cat# 62TK0PEC, Cisbio).[18] […] After a 1 h incubation of the plate, readings were taken on a microplate reader under standard HTRF conditions. IC50 values were calculated using GraphPad Prism 5.0 software. […] The data were analyzed using GraphPad Prism.
metric.name: IC50 (nM)
One number for each entry, in nM.

Task: Identify measured IC50 corresponding to "Cc1cc(C2=NCC(=CC#Cc3ccccc3)SC(c3ccc(Cl)cc3)=C2)ccc1F"
Output: 380

----------
# assayed.target: EGFRT790M kinase (Homo sapiens, UniProt P00533, T790M)
# experiment.notes: EGFR kinase inhibition assay (HTRF KinEASE-TK)
# Format: biochemical
# assay.setup: MCF-7 cells
metric.name: pIC50
One number for each entry, as −log10 of the molar value.

Task: Identify measured pIC50 corresponding to Cc1cc(C2=NCC(=CC#Cc3ccccc3)SC(c3ccc(Cl)cc3)=C2)ccc1F [TZEP7]
Output: 6.54

----------
# assayed.target: EGFRT790M kinase (Homo sapiens, UniProt P00533, T790M)
# experiment.notes: EGFR kinase inhibition assay (HTRF KinEASE-TK)
# Format: biochemical
metric.name: pIC50
Numbers only, as −log10 of the molar value.

Task: Identify measured pIC50 corresponding to Cc1cc(C2=NCC(=CC#Cc3ccccc3)SC(c3ccc(Cl)cc3)=C2)ccc1F [TZEP7]
Output: 6.55
